I'd be grateful if you could share measured pest or weed control at 50 µg/mL for these entries.
Test system: Resistant Plutella xylostella R1 (multi-resistant larvae having the G4946E resistance mutation)
Assay: Resistant Plutella xylostella R1 (Diamond back moth) larvicide L3, feeding/contact, sprayed Chinese cabbage leaves
Assay type: in vivo
Conditions: Plutella xylostella, 96 h, read-out: control of the resistant strain of Plutella xylostella R1

Given item Cc1cc(Cl)cc(C(N)=O)c1NC(=O)c1cc(Cn2nnc(-c3ccc(C(F)(F)F)cc3)n2)nn1-c1ncccc1Cl [Compound P6] , the value recorded as its pest or weed control at 50 µg/mL is ≥ 80%

Consider NC(=O)c1cc(Cl)cc(Br)c1NC(=O)c1cc(Cn2nnc(-c3ccc(C(F)(F)F)cc3)n2)nn1-c1ncccc1Cl [Compound P57] . Its measured pest or weed control at 50 µg/mL is ≥ 80%

Cc1cc(Cl)cc(C(N)=O)c1NC(=O)c1cc(Cn2nnc(C3CC3)n2)nn1-c1ncccc1Cl [Compound P2] yielded pest or weed control at 50 µg/mL of ≥ 80%

src = patent US20240308988A1
